Field: pIC50. Provide a value for each of the molecules that follow.
ASSAYED TARGET: TrkA (Homo sapiens, UniProt P04629)
Construct: aa 441-796; His; purchased Invitrogen PV3144
Sequence (P04629 441-796): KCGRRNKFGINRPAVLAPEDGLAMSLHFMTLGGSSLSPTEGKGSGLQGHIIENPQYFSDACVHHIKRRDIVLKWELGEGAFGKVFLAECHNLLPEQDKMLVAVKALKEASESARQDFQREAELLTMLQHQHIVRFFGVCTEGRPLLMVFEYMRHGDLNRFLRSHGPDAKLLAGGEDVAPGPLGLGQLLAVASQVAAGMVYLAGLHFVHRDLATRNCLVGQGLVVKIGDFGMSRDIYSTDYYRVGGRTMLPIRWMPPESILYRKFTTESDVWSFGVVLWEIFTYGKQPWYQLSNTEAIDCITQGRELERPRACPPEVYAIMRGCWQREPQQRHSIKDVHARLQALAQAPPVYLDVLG
ASSAY NAME: Isolated TRK enzyme assay (HTRF KinEASE-TK kit), PV3144 TrkA enzyme assay
Assay type: biochemical
CONDITION LABEL: PV3144 TrkA enzyme assay, recombinant His-tagged cytoplasmic domain aa 441-796, 4 nM enzyme, 40 uM ATP; arithmetic mean where more than one reading; read-out: Trka enzyme (IC50)
Numbers only, as −log10 of the molar value.

{"MOLECULE": "Cc1cc(C(=O)c2cn(C(C)C)c3ncncc23)cc(NC(=O)Cc2ccc(C#N)cc2)n1", "ASSAYED TARGET": "TrkA (Homo sapiens, UniProt P04629)", "VALUE MEASURED": 6.50}
{"MOLECULE": "Cc1cc(C)n(CC(=O)Nc2cc(C(=O)c3cn(C(CO)CO)c4ncncc34)ccn2)n1", "ASSAYED TARGET": "TrkA (Homo sapiens, UniProt P04629)", "VALUE MEASURED": 6.17}
{"MOLECULE": "CC(C)(CO)n1cc(C(=O)c2cc(NC(=O)Cc3ccc(C(F)(F)F)cc3)ccn2)c2cnc(N)nc21", "ASSAYED TARGET": "TrkA (Homo sapiens, UniProt P04629)", "VALUE MEASURED": 8.03}
{"MOLECULE": "CC(C)(CO)n1cc(C(=O)c2cc(NC(=O)Cn3ccc(C4CC4)n3)ccn2)c2cncnc21", "ASSAYED TARGET": "TrkA (Homo sapiens, UniProt P04629)", "VALUE MEASURED": 7.60}
{"MOLECULE": "Cc1cc(C(F)(F)F)nn1CC(=O)Nc1cc(C(=O)c2cn(C(C)C)c3nc(N)ncc23)ccn1", "ASSAYED TARGET": "TrkA (Homo sapiens, UniProt P04629)", "VALUE MEASURED": 8.33}

Each molecule below has a recorded value; state its pIC50.
1. CC(CO)n1cc(C(=O)c2ccnc(NC(=O)Cc3ccc(C#N)cc3)c2)c2cncnc21 (single isomer, unassigned) [Example 33]
2. C[C@@H](CO)n1cc(C(=O)c2cc(NC(=O)Cn3cc(C4CC4)nn3)ccn2)c2cncnc21

Completion:
1: 5.59; 2: 7.05
